meta.source: patent US7678791B2

Listing of entries alongside the reported MIC.
system: Helicobacter pylori CB1572 (Rif-resistant, rpoB L525I, D530N); assay: microbe, parasite or virus in culture; assay type: cell-based; details: read-out: MIC H. pylori CB1572 (Rif-resistant)
READOUT KIND: MIC (µg/mL)

MOLECULE	SIGN	OBS VALUE
CO[C@H]1/C=C/O[C@@]2(C)Oc3c(C)c(O)c4c(O)c(c(/C=N/N5CCN(CCn6c([N+](=O)[O-])cnc6C)CC5)c(O)c4c3C2=O)NC(=O)/C(C)=C\C=C\[C@H](C)[C@H](O)[C@@H](C)[C@@H](O)[C@@H](C)[C@H](OC(C)=O)[C@@H]1C	=	2
CO[C@H]1/C=C/O[C@@]2(C)Oc3c(C)c(O)c4c(=O)c(c5oc6cc(N7CCN(CCn8c([N+](=O)[O-])cnc8C)CC7)cc(O)c6nc-5c4c3C2=O)NC(=O)/C(C)=C\C=C\[C@H](C)[C@H](O)[C@@H](C)[C@@H](O)[C@@H](C)[C@H](OC(C)=O)[C@@H]1C	=	1
CO[C@H]1/C=C/O[C@@]2(C)Oc3c(C)c(O)c4c(c3C2=O)C2=NC3(CCN(CCn5c([N+](=O)[O-])cnc5C)CC3)NC2=C(NC(=O)/C(C)=C\C=C\[C@H](C)[C@H](O)[C@@H](C)[C@@H](O)[C@@H](C)[C@H](OC(C)=O)[C@@H]1C)C4=O	=	0.5
CO[C@H]1/C=C/O[C@@]2(C)Oc3c(C)c(O)c4c(O)c(c(/C=N/N5CCN(C)CC5)c(O)c4c3C2=O)NC(=O)/C(C)=C\C=C\[C@H](C)[C@H](O)[C@@H](C)[C@@H](O)[C@@H](C)[C@H](OC(C)=O)[C@@H]1C [rifampin, reference compound]	>	32
